measured-target: PAK6 (human)
procedure-summary: radiometric filter-binding kinase assay, Kinase HotSpot
study-conditions: compound 0.5 µM; ATP 10 µM
measured-metric: residual activity (%)
Write down the numeric answer in % and omit the unit.

Data request: Hello, please tell me recorded residual activity for this one: O=C1Cc2c([nH]c3ccc([N+](=O)[O-])cc23)-c2ccccc2N1
Data returned: 101

Data request: Hello, please tell me recorded residual activity for this one: O=C(NC(NC(=S)Nc1ccc(F)c([N+](=O)[O-])c1)C(Cl)(Cl)Cl)C(c1ccccc1)c1ccccc1 (stereo not drawn)
Data returned: 101

Data request: Hello, please tell me recorded residual activity for this one: O=c1cc(-c2cccc3c2Sc2ccccc2S3)oc(N2CCOCC2)c1
Data returned: 95.6

Data request: Hello, please tell me recorded residual activity for this one: CC(C)(C)c1nc2c3ccc(F)cc3c3c(=O)[nH]ccc3c2[nH]1
Data returned: 90.9

Data request: Hello, please tell me recorded residual activity for this one: COc1cc2nccc(Oc3ccc(NC(=S)NC(=O)c4ccccc4C)cc3)c2cc1OC
Data returned: 95.8

Data request: Hello, please tell me recorded residual activity for this one: O=C(Nc1ccc(Cl)cc1)c1ccccc1NCc1ccncc1
Data returned: 101

Data request: Hello, please tell me recorded residual activity for this one: O=c1cc(N2CCNCC2)oc2c(-c3ccccc3)cccc12
Data returned: 102

Data request: Hello, please tell me recorded residual activity for this one: O=C1Nc2cc(Br)ccc2/C1=C1/Nc2ccccc2/C1=N\O
Data returned: 86.3

Data request: Hello, please tell me recorded residual activity for this one: Clc1ccc(Nc2nnc(Cc3ccncc3)c3ccccc23)cc1
Data returned: 107

Data request: Hello, please tell me recorded residual activity for this one: O=C1Nc2ccccc2/C1=C\c1c(Cl)[nH]c2ccccc12
Data returned: 101

Data request: Hello, please tell me recorded residual activity for this one: CS(=O)c1ccc(-c2nc(-c3ccc(F)cc3)c(-c3ccncc3)[nH]2)cc1 (stereo not drawn)
Data returned: 76.7

Data request: Hello, please tell me recorded residual activity for this one: Nc1nc(Nc2ccc(S(N)(=O)=O)cc2)nn1C(=O)c1c(F)cccc1F
Data returned: 101

Data request: Hello, please tell me recorded residual activity for this one: Nc1nc(Nc2ccc(S(N)(=O)=O)cc2)nn1C(=S)Nc1c(F)cccc1F
Data returned: 81.9

* * *

What residual activity was measured for each of the following?
measured-target: IRAK1 (human) (UniProt P51617)
Sequence (P51617 whole entry, looked up): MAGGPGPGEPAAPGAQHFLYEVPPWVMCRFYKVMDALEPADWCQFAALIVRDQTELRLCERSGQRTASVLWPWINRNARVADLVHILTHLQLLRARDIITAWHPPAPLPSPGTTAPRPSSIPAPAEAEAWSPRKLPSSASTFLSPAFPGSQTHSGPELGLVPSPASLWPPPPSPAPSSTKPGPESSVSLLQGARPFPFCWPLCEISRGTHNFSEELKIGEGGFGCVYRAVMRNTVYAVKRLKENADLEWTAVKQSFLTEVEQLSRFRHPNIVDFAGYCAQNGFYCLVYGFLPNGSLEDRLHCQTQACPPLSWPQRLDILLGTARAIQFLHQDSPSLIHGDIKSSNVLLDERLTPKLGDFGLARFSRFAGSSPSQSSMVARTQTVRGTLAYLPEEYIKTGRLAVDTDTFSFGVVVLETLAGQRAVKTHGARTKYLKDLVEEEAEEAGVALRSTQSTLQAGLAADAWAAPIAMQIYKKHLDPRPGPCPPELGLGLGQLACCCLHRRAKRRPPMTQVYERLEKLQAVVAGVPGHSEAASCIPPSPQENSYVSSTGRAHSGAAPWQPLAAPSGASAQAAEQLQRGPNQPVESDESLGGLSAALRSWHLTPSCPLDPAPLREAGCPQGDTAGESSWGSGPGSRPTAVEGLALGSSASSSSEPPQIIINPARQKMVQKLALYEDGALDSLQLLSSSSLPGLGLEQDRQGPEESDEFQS
procedure-summary: radiometric filter-binding kinase assay, Kinase HotSpot
study-conditions: compound 0.5 µM; ATP 10 µM
Write down the numeric answer in % and omit the unit.

Data request: Given Cc1cc2ncc(-c3ccccc3)nc2cc1C , report its residual activity on IRAK1 (human) (UniProt P51617).
Data returned: 114

Data request: Given O=c1cc(N2CCNCC2)oc2c(-c3ccccc3)cccc12 , report its residual activity on IRAK1 (human) (UniProt P51617).
Data returned: 162

Data request: Given O=C(NC(NC(=S)Nc1ccc(F)c([N+](=O)[O-])c1)C(Cl)(Cl)Cl)C(c1ccccc1)c1ccccc1 (stereo not given) , report its residual activity on IRAK1 (human) (UniProt P51617).
Data returned: 107

Data request: Given NC(=O)c1ccc(N(C(N)=O)c2c(F)cccc2F)nc1-c1ccc(F)cc1F , report its residual activity on IRAK1 (human) (UniProt P51617).
Data returned: 94.2

Data request: Given Cc1ccc(NC(=O)c2ccc(CN3CCN(C)CC3)cc2)cc1Nc1nc(-c2cccnc2)cs1 , report its residual activity on IRAK1 (human) (UniProt P51617).
Data returned: 104

Data request: Given CC(C)n1cnc2c(Nc3cccc(Cl)c3)nc(NCCO)nc21 , report its residual activity on IRAK1 (human) (UniProt P51617).
Data returned: 101

Data request: Given O=C1Cc2c([nH]c3ccc([N+](=O)[O-])cc23)-c2ccccc2N1 , report its residual activity on IRAK1 (human) (UniProt P51617).
Data returned: 93.1

Data request: Given O=C1Nc2ccccc2/C1=C\c1c(Cl)[nH]c2ccccc12 , report its residual activity on IRAK1 (human) (UniProt P51617).
Data returned: 89.5

Data request: Given C#Cc1cccc(Nc2ncnc3cc(OCCOC)c(OCCOC)cc23)c1 , report its residual activity on IRAK1 (human) (UniProt P51617).
Data returned: 95.9

Data request: Given COc1ccc(-c2cnc3c(-c4ccsc4)cnn3c2)cc1 , report its residual activity on IRAK1 (human) (UniProt P51617).
Data returned: 94

* * *

measured-target: UniProt Q9H2X6
Sequence (Q9H2X6 whole entry, looked up): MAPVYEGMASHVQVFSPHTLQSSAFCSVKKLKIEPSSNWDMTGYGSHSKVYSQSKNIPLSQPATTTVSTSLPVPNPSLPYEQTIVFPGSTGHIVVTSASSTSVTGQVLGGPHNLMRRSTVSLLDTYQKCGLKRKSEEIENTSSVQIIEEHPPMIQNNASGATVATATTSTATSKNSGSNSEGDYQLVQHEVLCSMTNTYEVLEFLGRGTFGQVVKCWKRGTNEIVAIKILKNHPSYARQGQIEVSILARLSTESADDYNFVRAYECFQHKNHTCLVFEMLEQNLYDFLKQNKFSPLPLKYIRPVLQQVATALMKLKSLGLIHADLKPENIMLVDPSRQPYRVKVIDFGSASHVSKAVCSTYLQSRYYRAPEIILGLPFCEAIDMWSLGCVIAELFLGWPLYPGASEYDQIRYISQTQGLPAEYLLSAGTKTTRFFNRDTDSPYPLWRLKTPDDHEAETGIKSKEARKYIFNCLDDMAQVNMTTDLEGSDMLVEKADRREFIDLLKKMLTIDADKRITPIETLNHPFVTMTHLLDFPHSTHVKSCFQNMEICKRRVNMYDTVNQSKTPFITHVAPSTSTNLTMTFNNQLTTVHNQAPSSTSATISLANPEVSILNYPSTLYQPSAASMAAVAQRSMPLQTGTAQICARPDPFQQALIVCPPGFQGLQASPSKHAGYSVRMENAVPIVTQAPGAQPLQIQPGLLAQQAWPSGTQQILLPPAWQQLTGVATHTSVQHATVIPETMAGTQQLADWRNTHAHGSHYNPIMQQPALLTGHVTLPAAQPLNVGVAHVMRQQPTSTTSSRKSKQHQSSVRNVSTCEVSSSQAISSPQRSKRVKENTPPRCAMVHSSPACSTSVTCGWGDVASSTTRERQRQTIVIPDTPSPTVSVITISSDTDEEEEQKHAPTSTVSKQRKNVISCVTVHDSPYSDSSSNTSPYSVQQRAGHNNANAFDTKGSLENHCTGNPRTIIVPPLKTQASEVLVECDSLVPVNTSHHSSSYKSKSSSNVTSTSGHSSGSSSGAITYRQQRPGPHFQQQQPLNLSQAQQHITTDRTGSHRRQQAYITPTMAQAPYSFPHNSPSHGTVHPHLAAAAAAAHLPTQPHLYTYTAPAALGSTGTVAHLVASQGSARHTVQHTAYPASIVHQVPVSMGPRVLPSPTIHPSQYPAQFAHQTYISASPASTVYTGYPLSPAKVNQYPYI
procedure-summary: radiometric filter-binding kinase assay, Kinase HotSpot
study-conditions: compound 0.5 µM; ATP 10 µM
What residual activity was measured for each of the following?
Write down the numeric answer in % and omit the unit.

Data request: Given Cc1ccc(NC(=O)c2ccc(CN3CCN(C)CC3)cc2)cc1Nc1nc(-c2cccnc2)cs1 , report its residual activity on UniProt Q9H2X6.
Data returned: 90.8

Data request: Given Cc1cc2ncc(-c3ccccc3)nc2cc1C , report its residual activity on UniProt Q9H2X6.
Data returned: 97

Data request: Given O=C1Cc2c([nH]c3ccc([N+](=O)[O-])cc23)-c2ccccc2N1 , report its residual activity on UniProt Q9H2X6.
Data returned: 110

Data request: Given O=C1Nc2ccccc2/C1=C\c1c(Cl)[nH]c2ccccc12 , report its residual activity on UniProt Q9H2X6.
Data returned: 96.5

Data request: Given C#Cc1cccc(Nc2ncnc3cc(OCCOC)c(OCCOC)cc23)c1 , report its residual activity on UniProt Q9H2X6.
Data returned: 99.3

Data request: Given CSc1nc(-c2ccc(F)cc2)c(-c2ccnc(NC(C)c3ccccc3)c2)[nH]1 (stereo unspecified) , report its residual activity on UniProt Q9H2X6.
Data returned: 99.9

Data request: Given COc1cc2nccc(Oc3ccc(NC(=S)NC(=O)c4ccccc4C)cc3)c2cc1OC , report its residual activity on UniProt Q9H2X6.
Data returned: 99.2

Data request: Given CC(C)n1cnc2c(Nc3cccc(Cl)c3)nc(NCCO)nc21 , report its residual activity on UniProt Q9H2X6.
Data returned: 93.3

Data request: Given O=C1Nc2cc(Br)ccc2/C1=C1/Nc2ccccc2/C1=N\O , report its residual activity on UniProt Q9H2X6.
Data returned: 96.2

Data request: Given Nc1n[nH]c2nnc(-c3c(-c4ccccc4)nn4ccccc34)cc12 , report its residual activity on UniProt Q9H2X6.
Data returned: 104

Data request: Given CCN1/C(=C/C(C)=O)Sc2ccc(OC)cc21 , report its residual activity on UniProt Q9H2X6.
Data returned: 100

* * *

measured-target: UniProt:P54760
Sequence (P54760 whole entry, looked up): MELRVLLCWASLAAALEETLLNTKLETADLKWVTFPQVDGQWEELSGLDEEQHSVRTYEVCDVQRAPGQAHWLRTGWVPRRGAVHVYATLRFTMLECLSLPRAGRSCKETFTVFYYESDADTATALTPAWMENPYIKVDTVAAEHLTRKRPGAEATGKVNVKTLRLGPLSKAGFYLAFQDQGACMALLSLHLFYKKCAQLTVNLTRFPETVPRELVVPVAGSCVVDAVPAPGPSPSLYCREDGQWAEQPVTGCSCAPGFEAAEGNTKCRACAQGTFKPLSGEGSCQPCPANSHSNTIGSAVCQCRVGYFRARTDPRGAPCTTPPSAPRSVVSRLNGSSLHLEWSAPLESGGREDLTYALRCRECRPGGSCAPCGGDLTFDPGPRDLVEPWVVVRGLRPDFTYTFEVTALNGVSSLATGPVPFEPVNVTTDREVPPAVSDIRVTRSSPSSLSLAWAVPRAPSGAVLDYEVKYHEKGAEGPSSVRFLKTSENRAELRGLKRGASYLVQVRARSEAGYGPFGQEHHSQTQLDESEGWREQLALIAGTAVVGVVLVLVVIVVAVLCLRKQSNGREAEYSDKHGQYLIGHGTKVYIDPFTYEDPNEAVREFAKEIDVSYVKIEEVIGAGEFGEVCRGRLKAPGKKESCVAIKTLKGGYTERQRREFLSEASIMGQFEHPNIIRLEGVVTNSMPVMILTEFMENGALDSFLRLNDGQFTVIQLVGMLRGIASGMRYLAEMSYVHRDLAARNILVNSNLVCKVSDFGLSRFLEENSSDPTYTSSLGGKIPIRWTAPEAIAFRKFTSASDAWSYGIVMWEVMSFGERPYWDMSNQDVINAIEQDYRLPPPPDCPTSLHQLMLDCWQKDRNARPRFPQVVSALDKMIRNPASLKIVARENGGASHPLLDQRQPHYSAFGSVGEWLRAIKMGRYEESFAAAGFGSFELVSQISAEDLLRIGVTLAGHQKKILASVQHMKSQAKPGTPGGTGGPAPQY
procedure-summary: radiometric filter-binding kinase assay, Kinase HotSpot
study-conditions: compound 0.5 µM; ATP 10 µM
measured-metric: residual activity (%)
Write down the numeric answer in % and omit the unit.

Data request: Hello, please tell me recorded residual activity for this one: O=C(NC(NC(=S)Nc1ccc(F)c([N+](=O)[O-])c1)C(Cl)(Cl)Cl)C(c1ccccc1)c1ccccc1 (centres undefined)
Data returned: 101

Data request: Hello, please tell me recorded residual activity for this one: O=c1cc(-c2cccc3c2Sc2ccccc2S3)oc(N2CCOCC2)c1
Data returned: 94.3

Data request: Hello, please tell me recorded residual activity for this one: CCCNC(=O)Nc1ccc(Oc2ncnc3cc(OC)c(OC)cc23)cc1Cl
Data returned: 89.4

Data request: Hello, please tell me recorded residual activity for this one: Clc1ccc(Nc2nnc(Cc3ccncc3)c3ccccc23)cc1
Data returned: 85.1

Data request: Hello, please tell me recorded residual activity for this one: CC(C)[C@H](CO)Nc1nc(Nc2cccc(Cl)c2)c2ncn(C(C)C)c2n1
Data returned: 71.7

Data request: Hello, please tell me recorded residual activity for this one: Nc1nc(Nc2ccc(S(N)(=O)=O)cc2)nn1C(=S)Nc1c(F)cccc1F
Data returned: 51

Data request: Hello, please tell me recorded residual activity for this one: O=c1cc(N2CCNCC2)oc2c(-c3ccccc3)cccc12
Data returned: 101

Data request: Hello, please tell me recorded residual activity for this one: O=C1Nc2cc(Br)ccc2/C1=C1/Nc2ccccc2/C1=N\O
Data returned: 78.5

Data request: Hello, please tell me recorded residual activity for this one: O=C(Nc1ccc(Cl)cc1)c1ccccc1NCc1ccncc1
Data returned: 89.6

Data request: Hello, please tell me recorded residual activity for this one: Cc1cc2ncc(-c3ccccc3)nc2cc1C
Data returned: 95.6

Data request: Hello, please tell me recorded residual activity for this one: COc1cc2nccc(Oc3ccc(NC(=S)NC(=O)c4ccccc4C)cc3)c2cc1OC
Data returned: 103

Data request: Hello, please tell me recorded residual activity for this one: Oc1ccc(-c2nc(-c3ccc(F)cc3)c(-c3ccncc3)[nH]2)cc1
Data returned: 89

Data request: Hello, please tell me recorded residual activity for this one: NC(=O)c1ccc(N(C(N)=O)c2c(F)cccc2F)nc1-c1ccc(F)cc1F
Data returned: 83.9

Data request: Hello, please tell me recorded residual activity for this one: CS(=O)c1ccc(-c2nc(-c3ccc(F)cc3)c(-c3ccncc3)[nH]2)cc1 (centres undefined)
Data returned: 91.1

Data request: Hello, please tell me recorded residual activity for this one: CC(C)n1cnc2c(Nc3cccc(Cl)c3)nc(NCCO)nc21
Data returned: 82

Data request: Hello, please tell me recorded residual activity for this one: Nc1nc(Nc2ccc(S(N)(=O)=O)cc2)nn1C(=O)c1c(F)cccc1F
Data returned: 81

Data request: Hello, please tell me recorded residual activity for this one: Nc1n[nH]c2nnc(-c3c(-c4ccccc4)nn4ccccc34)cc12
Data returned: 98.5

Data request: Hello, please tell me recorded residual activity for this one: O=C1Cc2c([nH]c3ccc([N+](=O)[O-])cc23)-c2ccccc2N1
Data returned: 87.2

Data request: Hello, please tell me recorded residual activity for this one: O=C1Nc2ccccc2/C1=C\c1c(Cl)[nH]c2ccccc12
Data returned: 90.2

Data request: Hello, please tell me recorded residual activity for this one: CSc1nc(-c2ccc(F)cc2)c(-c2ccnc(NC(C)c3ccccc3)c2)[nH]1 (centres undefined)
Data returned: 99.9

Data request: Hello, please tell me recorded residual activity for this one: Cc1ccc(NC(=O)c2ccc(CN3CCN(C)CC3)cc2)cc1Nc1nc(-c2cccnc2)cs1
Data returned: 97.3

Data request: Hello, please tell me recorded residual activity for this one: CC(C)(C)c1nc2c3ccc(F)cc3c3c(=O)[nH]ccc3c2[nH]1
Data returned: 88.2

Data request: Hello, please tell me recorded residual activity for this one: CCN1/C(=C/C(C)=O)Sc2ccc(OC)cc21
Data returned: 92.4

Data request: Hello, please tell me recorded residual activity for this one: COc1ccc(-c2cnc3c(-c4ccsc4)cnn3c2)cc1
Data returned: 87.5
